Assay target: Type-1 angiotensin II receptor (Homo sapiens)
Sequence (P30556 whole entry): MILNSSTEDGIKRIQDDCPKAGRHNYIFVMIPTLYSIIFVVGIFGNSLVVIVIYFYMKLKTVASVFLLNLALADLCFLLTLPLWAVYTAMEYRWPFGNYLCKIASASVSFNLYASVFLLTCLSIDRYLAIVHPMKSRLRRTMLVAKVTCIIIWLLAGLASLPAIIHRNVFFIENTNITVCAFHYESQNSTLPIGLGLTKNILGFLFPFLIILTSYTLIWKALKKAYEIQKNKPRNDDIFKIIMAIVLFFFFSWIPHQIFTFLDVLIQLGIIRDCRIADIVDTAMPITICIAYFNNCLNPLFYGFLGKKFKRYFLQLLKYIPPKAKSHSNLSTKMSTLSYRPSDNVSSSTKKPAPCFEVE
Test protocol: Displacement of [125I-Sar1-Ile8]Ang2 from human AT1 receptor expressed in HEK293 cell membrane incubated for 1 hr by gamma counting method
Type: cell membranes
Test conditions: read-out: IC50
Readout kind: pIC50
Convention used: pIC50 is expressed as -log10 of the molar concentration.

// field: pIC50; key: `CN(Cc1cn(-c2ccccc2)nc1-c1ccc(Cl)cc1)C(=O)CCC(=O)O` ; value = 6.70

These data points were gathered from ChEMBL document CHEMBL3826874.
